Each entry below lists one item and its recorded Ki value.
target: β-catenin/BCL9 PPI (Homo sapiens, UniProt P35222); construct: Wild-type full-length β-catenin were cloned into a pET-28b vector; made in house; host or cells: Escherichia coli BL21 DE3 (β-catenin); BCL9 peptide chemically synthesized; assay: AlphaScreen competitive inhibition assay of the β-catenin/BCL9 PPI; assay type: binding; details: experiment 3; mean ± SD, triplicate; Ki derived from IC50 (Nikolovska-Coleska equation); read-out: Ki (μM ± SD) experiment 3
Sequence (P35222 whole entry): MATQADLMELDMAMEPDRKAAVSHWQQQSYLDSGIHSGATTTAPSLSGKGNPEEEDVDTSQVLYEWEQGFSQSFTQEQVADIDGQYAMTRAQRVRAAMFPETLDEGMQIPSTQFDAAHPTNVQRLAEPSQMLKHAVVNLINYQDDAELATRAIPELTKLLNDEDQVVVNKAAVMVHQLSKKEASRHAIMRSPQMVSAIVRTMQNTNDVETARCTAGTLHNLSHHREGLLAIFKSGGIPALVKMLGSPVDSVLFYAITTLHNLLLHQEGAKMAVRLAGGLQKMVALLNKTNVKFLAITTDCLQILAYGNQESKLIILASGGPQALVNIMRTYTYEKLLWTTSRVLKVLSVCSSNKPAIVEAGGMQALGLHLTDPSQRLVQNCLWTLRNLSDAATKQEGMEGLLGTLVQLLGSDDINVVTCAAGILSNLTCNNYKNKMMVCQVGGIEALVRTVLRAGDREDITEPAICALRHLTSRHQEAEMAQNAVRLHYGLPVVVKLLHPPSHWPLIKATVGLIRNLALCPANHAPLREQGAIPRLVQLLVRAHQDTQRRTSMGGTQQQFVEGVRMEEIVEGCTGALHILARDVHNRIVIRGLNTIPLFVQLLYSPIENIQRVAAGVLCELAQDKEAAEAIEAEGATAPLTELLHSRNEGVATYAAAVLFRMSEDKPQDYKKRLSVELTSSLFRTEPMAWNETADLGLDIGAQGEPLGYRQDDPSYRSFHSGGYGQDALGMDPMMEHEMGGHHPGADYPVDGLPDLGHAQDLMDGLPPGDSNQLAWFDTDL
Counter-ions that a name gives are not always drawn.
I only need the number, in µM, no unit after it.

>>> df
                                   compound  measurename  resultnumber
0  CC[C@H]1CN(C(=O)c2cc(F)cc(NC(C)=O)c2)CCN1C(=O)c1ccc(O[C@H]2CCNC2)c(C2CCCCC2)c1 [Compound 14, trifluoroacetate]           Ki           790
1  CC(=O)Nc1cc(F)cc(C(=O)N2CCN(C(=O)c3ccc(O[C@H]4CCNC4)c(C4CCCCC4)c3)CC2)c1 [Compound 12, trifluoroacetate]           Ki            61

Quick one: Ki for CC(=O)Nc1cc(F)cc(C(=O)N2CCN(C(=O)c3ccc(O[C@H]4CCNC4)c(C4CCCCC4)c3)[C@@H](CC(C)C)C2)c1 [Compound 16, trifluoroacetate] ?
330

Here is the next compound: CC(=O)Nc1cc(F)cc(C(=O)N2CCN(C(=O)c3ccc(O[C@H]4CCNC4)c(C4CCCCC4)c3)[C@@H](C(C)C)C2)c1 [Compound 15, trifluoroacetate]
280

Here is the next compound: CC(=O)Nc1cc(F)cc(C(=O)N2CCN(C(=O)c3ccc(O[C@H]4CCNC4)c(C4CCCCC4)c3)[C@@H](C)C2)c1 [Compound 13, trifluoroacetate]
330

----------
target: β-catenin/BCL9 PPI (Homo sapiens, UniProt P35222); construct: Wild-type full-length β-catenin were cloned into a pET-28b vector; made in house; host or cells: Escherichia coli BL21 DE3 (β-catenin); BCL9 peptide chemically synthesized; assay: AlphaScreen competitive inhibition assay of the β-catenin/BCL9 PPI; type: binding; conditions: experiment 1; mean ± SD, triplicate; Ki derived from IC50 (Nikolovska-Coleska equation); read-out: Ki (μM ± SD) experiment 1
Each entry below lists one item and its recorded Ki value.
I only need the number, in µM, no unit after it.

                                   molecule  measurename  resultnumber
0  CC(C)(N)C(=O)Nc1cc(F)cc(C(=O)N2CCN(C(=O)c3ccc(O[C@H]4CCNC4)c(C4CCCCC4)c3)CC2)c1 [Compound 3, ditrifluoroacetate]           Ki           310
1  CN(C(=O)CCCCN)c1cc(F)cc(C(=O)N2CCN(C(=O)c3ccc(O[C@H]4CCNC4)c(C4CCCCC4)c3)CC2)c1 [Compound 7, ditrifluoroacetate]           Ki           730
2  O=C(Nc1cc(F)cc(C(=O)N2CCN(C(=O)c3ccc(O[C@H]4CCNC4)c(C4CCCCC4)c3)CC2)c1)C1CCNCC1 [Compound 5, ditrifluoroacetate]           Ki           157

Read the next record carefully.
Quick one: Ki for CC(C)(CN)C(=O)Nc1cc(F)cc(C(=O)N2CCN(C(=O)c3ccc(O[C@H]4CCNC4)c(C4CCCCC4)c3)CC2)c1 [Compound 4, ditrifluoroacetate] ?
780
